- assayed system: T1, human LAP-TGFB1 Fc fusion (human)
- T1 construct: also called human LAP-TGFβ1-Fc; human LAP-TGFβ-Fc isoform 1
- T1 sequence (chain, as listed by the source limits assumed): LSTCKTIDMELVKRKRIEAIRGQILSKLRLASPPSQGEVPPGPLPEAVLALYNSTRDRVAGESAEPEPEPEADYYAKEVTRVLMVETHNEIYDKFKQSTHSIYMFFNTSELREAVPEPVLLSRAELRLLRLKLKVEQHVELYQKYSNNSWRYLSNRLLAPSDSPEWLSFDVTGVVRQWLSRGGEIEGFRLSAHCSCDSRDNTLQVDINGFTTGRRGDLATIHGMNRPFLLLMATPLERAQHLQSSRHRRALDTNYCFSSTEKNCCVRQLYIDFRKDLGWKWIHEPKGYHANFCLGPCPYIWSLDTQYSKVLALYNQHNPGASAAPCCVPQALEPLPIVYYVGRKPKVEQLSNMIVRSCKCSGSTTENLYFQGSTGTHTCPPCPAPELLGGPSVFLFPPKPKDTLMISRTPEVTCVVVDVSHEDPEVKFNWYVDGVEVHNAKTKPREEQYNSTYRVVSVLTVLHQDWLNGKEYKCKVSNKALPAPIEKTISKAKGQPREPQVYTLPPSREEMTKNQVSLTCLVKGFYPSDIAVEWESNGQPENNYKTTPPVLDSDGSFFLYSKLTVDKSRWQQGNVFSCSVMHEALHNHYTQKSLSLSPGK
- assay summary: SPR pH 7.4, antigen-Fc captured, Fab analyte
Task for the reader: assign each of the following binders its reported kon.
One number for each entry, in M⁻¹ s⁻¹.

59BLH (Fab, V domains shown, also called 11BLM Fab) VH: EVQLVQSGAEVKKPGASVKVSCKASGYTFTSYDMHWVRQAPGQGLEWMGRIDPQSGGIRYAQKFQGRATLTVDTSTSTAYMELSRLRSDDTAVYYCARWDYGGYFDVWGQGTLVTVSS VL: DIQMTQSPSSLSASVGDRVTITCRASQDIYNYLNWYQQKPGKAVKLLIYYTSVLETGVPSRFSGSGSGTDYTLTISSLQPEDFATYFCQQGDTLPWTFGQGTKLEIK; 7.1e+06
55BLH (Fab, V domains shown, also called 07BLM Fab) VH: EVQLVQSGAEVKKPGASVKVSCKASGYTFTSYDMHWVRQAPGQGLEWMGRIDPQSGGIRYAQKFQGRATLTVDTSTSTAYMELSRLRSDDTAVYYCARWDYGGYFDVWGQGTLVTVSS VL: DIQMTQSPSSLSASVGDRVTITCRASQDIYSYLNWYQQKPGKAVKLLIYYTSNLETGVPSRFSGSGSGTDYTLTISSLQPEDFATYFCQQGDTLPWTFGQGTKLEIK; 9.08e+06

Now consider a different binder.
Query :: Give me measured kon, please, for this binder: 56BLH (Fab, V domains shown, also called 08BLM Fab) VH: EVQLVQSGAEVKKPGASVKVSCKASGYTFTSYDMHWVRQAPGQGLEWMGRIDPQSGGTKYAQKFQGRATLTVDTSTSTAYMELSRLRSDDTAVYYCARWDYGGQFDVWGQGTLVTVSS VL: DIQMTQSPSSLSASVGDRVTITCRASQDIYNYLNWYQQKPGKAVKLLIYYTSGLETGVPSRFSGSGSGTDYTLTISSLQPEDFATYFCQQGDTLPWTFGQGTKLEIK
Result :: 4.53e+06

The reported measurements were obtained from patent US20230272056A1.
